Assay: AUC (0 to infinity) in CD-1 mouse at 30 mg/kg, iv after 24 hrs by LC-MS/MS analysis
Format: ADME, organism-based
Set-up: dose 30 mg/kg, route intravenous, time infinity
Conditions: in vivo
Parameter: AUC(0-inf) (ng·h/mL)
One number for each entry, in ng·h/mL.

Record CCOc1ccc(Br)c2c1B(O)O[C@@H]2CN . Reported AUC(0-inf): 43400

----------
Experiment: Half life in C57BL/6 mouse at 30 mg/kg, iv administered as single dose measured up to 24 hrs by LC-MS/MS analysis
Type: ADME, organism-based
Details: in vivo
Parameter: half-life (min)
One number for each entry, in min.

Record Cl.NC[C@H]1OB(O)c2c3c(cc(Cl)c21)OCCO3 . Reported half-life: 174

----------
Test: Volume of distribution at steady state in C57BL/6 mouse at 30 mg/kg, iv administered as single dose measured up to 24 hrs by LC-MS/MS analysis
Type: ADME, organism-based
Settings: in vivo, read-out: Vdss
Parameter: Vd
Answer with the figure and its unit, nothing else.

Record Cl.NC[C@H]1OB(O)c2c3c(cc(Cl)c21)OCCO3 . Reported Vd: 1.5 L/kg

----------
Test: Volume of distribution at steady state in CD-1 mouse at 5 mg/kg, iv after 24 hrs by LC-MS/MS analysis
Format: ADME, organism-based
Details: in vivo, read-out: Vdss
Parameter: Vd (L/kg)
Give bare numbers, in L/kg.

Record COc1ccc(Br)c2c1B(O)O[C@@H]2CN.Cl . Reported Vd: 2.5

----------
Assay: AUC (0 to 24 hrs) in CD-1 mouse at 30 mg/kg administered via oral gavage by LC-MS/MS analysis
Assay type: ADME, organism-based
Set-up: dose 30 mg/kg, time < 24 hr, route oral
Conditions: in vivo
Parameter: AUC(0-t) at 24 h

Record CCOc1ccc(Br)c2c1B(O)O[C@@H]2CN . Reported AUC(0-t) at 24 h: 57600 ng·h/mL

----------
Assay: Half life in CD-1 mouse at 5 mg/kg, iv after 24 hrs by LC-MS/MS analysis
Format: ADME, organism-based
Conditions: in vivo
Parameter: half-life (h)
Give bare numbers, in h.

Record COc1ccc(Br)c2c1B(O)O[C@@H]2CN.Cl . Reported half-life: 2.4

----------
Target: Leucine--tRNA ligase (Mycobacterium tuberculosis (strain ATCC 25618 / H37Rv), UniProt P9WFV1)
Sequence (P9WFV1 whole entry): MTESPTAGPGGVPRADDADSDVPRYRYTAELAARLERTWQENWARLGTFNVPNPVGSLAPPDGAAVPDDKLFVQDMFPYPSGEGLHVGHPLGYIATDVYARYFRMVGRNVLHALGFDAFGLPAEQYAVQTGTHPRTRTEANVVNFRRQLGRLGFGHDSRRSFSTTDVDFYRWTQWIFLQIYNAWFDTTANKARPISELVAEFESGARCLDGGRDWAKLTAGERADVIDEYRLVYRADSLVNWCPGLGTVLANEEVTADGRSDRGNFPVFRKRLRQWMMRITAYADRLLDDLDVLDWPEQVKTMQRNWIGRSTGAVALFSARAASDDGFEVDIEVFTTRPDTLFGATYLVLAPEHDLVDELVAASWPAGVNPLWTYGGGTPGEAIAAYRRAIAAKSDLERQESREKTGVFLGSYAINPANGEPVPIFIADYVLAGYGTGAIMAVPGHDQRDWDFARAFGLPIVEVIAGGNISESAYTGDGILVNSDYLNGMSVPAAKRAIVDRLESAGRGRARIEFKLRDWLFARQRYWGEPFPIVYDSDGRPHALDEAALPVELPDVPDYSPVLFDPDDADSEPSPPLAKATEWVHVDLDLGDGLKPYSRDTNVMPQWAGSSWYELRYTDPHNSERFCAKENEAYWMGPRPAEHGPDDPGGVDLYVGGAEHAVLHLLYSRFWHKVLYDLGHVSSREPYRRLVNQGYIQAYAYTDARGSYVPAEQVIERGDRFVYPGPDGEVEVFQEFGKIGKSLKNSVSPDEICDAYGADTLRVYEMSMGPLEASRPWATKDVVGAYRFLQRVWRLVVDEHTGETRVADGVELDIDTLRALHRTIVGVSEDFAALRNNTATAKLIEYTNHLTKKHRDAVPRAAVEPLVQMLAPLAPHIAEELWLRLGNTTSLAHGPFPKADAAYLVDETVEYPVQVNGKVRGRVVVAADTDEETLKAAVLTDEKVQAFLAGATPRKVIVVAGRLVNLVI
Assay: Inhibition of Mycobacterium tuberculosis H37Rv N-terminal 6His-tagged LeuRS expressed in Escherichia coli BL21(DE3) assessed as L-[14C]leucine incorporation in to Escherichia coli tRNA after 20 mins by liquid scintillation counting analysis
Parameter: log10 IC50 (log10 of the value in nM)
Hi team, quick reminder: these entries are log10 of IC50 (nM).

Field: example entries. Status: answers known.
compound=NC[C@@H]1OB(O)c2c3c(cc(Br)c21)OCCO3 parameter="log10 IC50" data_value=3.62
compound="NCC1OB(O)c2c(Oc3ccccc3)ccc(Cl)c21 (racemic)" parameter="log10 IC50" data_value=2.53

Take each entry in turn and give its log10 IC50.
1. NCC1OB(O)c2cc(OCCO)cc(Cl)c21 (racemic)
2. CCCOc1cc(Cl)c2c(c1)B(O)OC2CN (racemic)
3. NCC1OB(O)c2c(OCC(F)F)ccc(Br)c21 (racemic)
4. CCCOc1ccc(Cl)c2c1B(O)O[C@@H]2CN

Found:
3.05
2.40
2.38
2.49
